assayDetails: chemical genetic growth profiling, strain panel (AID 1159580);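 also: tested at 20 µM; growth read once vehicle control cultures reached saturation at 30 °C; 1 = growth at the plate median or of vehicle wells; lower values mean less growth of the strain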
testConditions: S. cerevisiae deletion strains, growth OD, locus YCL061C, strain MRC1 (second series), active compounds read low
Screen size: about 5,500 compounds; about 2,000 (36%) were called active. Not shown: some 18% with an inconclusive outcome. Some of the results follow.
# reported normalized growth; entries follow
assayReadout: normalized growth

>>> df
                                    compound  measvalue
 0         CC(=O)Oc1cc(C(C)C)c(OCCN(C)C)cc1C       1.01
 1     CCCCC1C(=O)N(c2ccccc2)N(c2ccccc2)C1=O      0.998
 2       Cn1c(=O)c2[nH]c(C3CCCC3)nc2n(C)c1=O      0.985
 3  CO[C@H]1CC=C2CCN3CCC4=C(CC(=O)OC4)[C@]23C1          1
 4                      CCCCc1ccc(C(=O)O)nc1          1
 5  CCNC(=O)[C@H]1O[C@@H](n2cnc3c(N)nc(NCCc4ccc(CCC(=O)O)cc4)nc32)C(O)[C@H]1O (some centres not stated)      0.991
 6                   CNCCc1c[nH]c2ccc(O)cc12       1.01
 7                         NCCc1ccc(O)c(O)c1      0.997
 8      N[C@@H](Cn1cc(I)c(=O)[nH]c1=O)C(=O)O      0.992
 9  NCCNC(=O)Cc1ccc(NC(=O)Cc2ccc(Nc3ncnc4c3ncn4[C@@H]3O[C@H](CO)[C@H](O)C3O)cc2)cc1 (some centres not stated)      0.999
10                    NCCc1c[nH]c2ccc(O)cc12       1.01
11         CN1CCc2ccccc2Cc2[nH]c3ccccc3c2CC1       1.01

====

assayDetails: chemical genetic growth profiling, strain panel (AID 1159580);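 also: tested at 20 µM; growth read once vehicle control cultures reached saturation at 30 °C; 1 = growth at the plate median or of vehicle wells; lower values mean less growth of the strain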
testConditions: S. cerevisiae deletion strains, growth OD, locus YJL164C, strain tpk1
In all, about 5,500 compounds went through this assay and about 2,000 (36%) were called active. Not shown: some 18% with an inconclusive outcome. Rule as the data show it: active = normalized growth mostly below about 0.91 (no sharp cut-off); inconclusive = no clear call, values can overlap the other calls; inactive = mostly above about 0.92. The list shows a part of the results.
Outcome codes: True = active, False = inactive

molecule	assignedLabel
CN1CCOC(c2ccccc2)c2ccccc2C1 (stereo not given)	False
CCC(/C=C/[C@@H](C)[C@H]1CCC2C3CC=C4C[C@@H](O)CC[C@]4(C)C3CC[C@@]21C)C(C)C (stereo not given in full)	False
CC(=O)[C@H]1CCC2C3CC=C4C[C@@H](O)CC[C@]4(C)C3CC[C@@]21C (stereo not given in full)	False
Nc1ccc(C(=O)O)c(O)c1	False
O=C1CN2Cc3c(ccc(Cl)c3Cl)N=C2N1	False
O=c1cc(-c2cccc(O)c2)oc2ccc(O)cc12	False
COc1c(O)cccc1O	False
CCCN1C[C@H](CSC)C[C@@H]2c3cccc4[nH]cc(c34)C[C@H]21	False
CN1CCN2c3ccccc3Cc3ccccc3C2C1 (stereo not given)	False
CC(=O)OCC(=O)[C@H]1CCC2C3CC=C4C[C@@H](O)CC[C@]4(C)C3CC[C@@]21C (stereo not given in full)	True
CC(=O)Nc1ccc(OC(=O)c2ccccc2O)cc1	True
CC(=O)Nc1ccc(O)cc1	False
CC[N+]1(C)CCCC(OC(=O)C(O)(c2ccccc2)c2ccccc2)C1 (stereo not given)	False
CC1(C)O[C@@H]2CC3C4C[C@H](F)C5=CC(=O)C=CC5(C)C4C(O)CC3(C)[C@]2(C(=O)CO)O1 (stereo not given in full)	False
CC(C(=O)O)[C@H]1CCC2C3CC=C4C[C@@H](O)CC[C@]4(C)C3CC[C@@]21C (stereo not given in full)	False
CC(=O)O[C@H]1C[C@@H](O)C(C)(C)C2C[C@@H](OC(C)=O)[C@]3(C)C(CC[C@@]4(C)[C@H](c5ccoc5)OC(=O)C5OC543)[C@]21C (stereo not given in full)	False
O=c1cc(-c2ccc(O)c(O)c2)oc2ccccc12	False
CC(=O)O[C@H]1C[C@@]2(C)[C@H](c3ccoc3)OC(=O)[C@H]3O[C@]32[C@@]2(C)C1[C@]1(C)C(C[C@H]2OC(C)=O)C(C)(C)[C@H](OC(C)=O)C[C@@H]1OC(C)=O (stereo not given in full)	False
CC(=O)O[C@@H]1CC2C(C)(C)CCC(=O)[C@]2(C)C2CC[C@@]3(C)[C@H](c4ccoc4)OC(=O)C4OC43[C@@]21C (stereo not given in full)	False
O=c1cc(-c2ccc(O)cc2)oc2ccc(O)cc12	False

====

assayDetails: chemical genetic growth profiling, strain panel (AID 1159580);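 also: tested at 20 µM; growth read once vehicle control cultures reached saturation at 30 °C; 1 = growth at the plate median or of vehicle wells; lower values mean less growth of the strain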
testConditions: S. cerevisiae deletion strains, growth OD, locus YKR091W, strain srl3, active compounds read low
In all, about 5,500 compounds went through this assay and about 2,000 (36%) were called active. Another 18% or so got no clear call; they are omitted. Some of the results follow.
# reported normalized growth; entries follow
assayReadout: normalized growth

>>> print(df.to_string())
                                    compound  measvalue
 0                        CC(=O)Nc1cccc(O)c1       1.01
 1       COc1ccc(-c2cc(=O)c3cc(OC)ccc3o2)cc1       0.96
 2  COC(=O)C1=C(C)NC(C)=C(C(=O)OCC(C)C)C1c1ccccc1[N+](=O)[O-] (stereo not drawn)      0.589
 3  CC(=O)OCC(=O)[C@@]1(O)CCC2C3CC[C@@H]4C[C@H](O)CC[C@]4(C)C3C(=O)C[C@@]21C (stereo partly drawn)       1.02
 4                       N[C@H](CO)Cc1ccccc1       1.01
 5  COc1cc2c3cc1Oc1cc(ccc1O)C[C@@H]1c4c(cc(OC)c(O)c4Oc4ccc(cc4)C[C@@H]3N(C)CC2)CC[N+]1(C)C      0.999
 6       Cn1c(=O)c2[nH]c(C3CCCC3)nc2n(C)c1=O      0.991
 7         O=C(O)c1nc2cc(Cl)c(Cl)cc2[nH]c1=O       1.01
 8  CCC(/C=C/[C@@H](C)[C@H]1CCC2C3CC=C4C[C@@H](O)CC[C@]4(C)C3CC[C@@]21C)C(C)C (stereo partly drawn)       0.99
 9                           N[C@@H]1CONC1=O      0.983
10  CC(C)c1ccc2c(c1O)CC[C@H]1C3=C(CC[C@]21C)C(=O)OC3      0.967
11                        CC(=O)Nc1ccc(O)cc1       1.01
12                CC(C)(Oc1ccc(Cl)cc1)C(=O)O      0.999
13          O=c1[nH]c2cc(Cl)c(Cl)cc2[nH]c1=O      0.987
14  COCCOC(=O)C1=C(C)NC(C)=C(C(=O)OC(C)C)C1c1cccc([N+](=O)[O-])c1 (stereo not drawn)      0.995
15  CC(C)(C)C(=O)C(Oc1ccc(Cl)cc1)n1cncn1 (stereo not drawn)      0.247
16  COc1ccc(-c2cc(=O)c3c(O)c(OC)c(OC)c(OC)c3o2)cc1      0.994
17    O=C1CCc2cc(OCCCCc3nnnn3C3CCCCC3)ccc2N1       0.99
18                                 S=c1ccss1      0.992
19                      Nc1ccc(C(=O)O)c(O)c1      0.989
20  COc1ccc(-c2cc(=O)c3c(OC)c(OC)c(OC)c(OC)c3o2)cc1      0.986
21  COC(=O)C1=C(C)NC(C)=C(C(=O)OCCN(C)Cc2ccccc2)C1c1cccc([N+](=O)[O-])c1 (stereo not drawn)      0.993
22  COc1cc([C@@H]2c3cc4c(cc3[C@H](OC(C)=O)[C@H]3COC(=O)[C@H]23)OCO4)cc(OC)c1OC       1.01

====

# reported normalized growth; entries follow
assayDetails: chemical genetic growth profiling, strain panel (AID 1159580);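 also: tested at 20 µM; growth read once vehicle control cultures reached saturation at 30 °C; 1 = growth at the plate median or of vehicle wells; lower values mean less growth of the strain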
testConditions: S. cerevisiae deletion strains, growth OD, locus YGL240W, strain doc1, active compounds read low
Among all 5,500 compounds or so, about 2,000 (36%) were called active. Not shown: some 18% with an inconclusive outcome. The list shows a part of the results.
assayReadout: normalized growth

                                   compound       assayreadout  measvalue
0  CCCCOc1cc(CC2CNC(=O)N2)ccc1OC (stereo not given)  normalized growth       1.04
1  CC(C)(C)C(=O)C(Oc1ccc(Cl)cc1)n1cncn1 (stereo not given)  normalized growth      0.714
2  CC(C(=O)O)[C@H]1CCC2C3CC=C4C[C@@H](O)CC[C@]4(C)C3CC[C@@]21C (stereo not given in full)  normalized growth       1.03
3  CC1(C)O[C@@H]2CC3C4C[C@H](F)C5=CC(=O)C=CC5(C)C4C(O)CC3(C)[C@]2(C(=O)CO)O1 (stereo not given in full)  normalized growth       1.02
4  CC[C@]12C=CCN3CC[C@@]4(c5ccc(OC)cc5N(C)C4[C@@](O)(C(=O)OC)[C@@H]1OC(C)=O)[C@@H]32 (stereo not given in full)  normalized growth          1
5  CC(=O)[C@H]1CCC2C3CC=C4C[C@@H](OC(=O)CCC(=O)O)CC[C@]4(C)C3CC[C@@]21C (stereo not given in full)  normalized growth      0.939
6  CC(=O)OCC(=O)[C@H]1CCC2C3CC=C4C[C@@H](O)CC[C@]4(C)C3CC[C@@]21C (stereo not given in full)  normalized growth      0.927
7                CC(C)(Oc1ccc(Cl)cc1)C(=O)O  normalized growth          1
8  CCC(CCC(C)[C@H]1CCC2C3CC=C4C[C@@H](O)CC[C@]4(C)C3CC[C@@]21C)C(C)C (stereo not given in full)  normalized growth       1.03
9    CCN(CC)CCNc1ccc(CO)c2sc3ccccc3c(=O)c12  normalized growth       1.01
